Molecular target: Fatty acid-binding protein, intestinal (Homo sapiens, UniProt P12104)
Sequence (P12104 whole entry): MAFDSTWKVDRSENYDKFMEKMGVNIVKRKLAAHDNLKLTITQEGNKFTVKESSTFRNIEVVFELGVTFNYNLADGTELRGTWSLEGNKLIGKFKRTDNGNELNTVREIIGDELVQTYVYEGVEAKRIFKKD
pKi: −log10 of the molar value.
Assay endpoint: pKi

{"Entry smiles": "COC(=O)c1sc(-c2cccs2)cc1NC(=O)/C=C/C(=O)O", "Assay endpoint": "pKi", "Endpoint result": 5.18}

---

Target: Fatty acid-binding protein, heart (Homo sapiens, UniProt P05413)
Sequence (P05413 whole entry): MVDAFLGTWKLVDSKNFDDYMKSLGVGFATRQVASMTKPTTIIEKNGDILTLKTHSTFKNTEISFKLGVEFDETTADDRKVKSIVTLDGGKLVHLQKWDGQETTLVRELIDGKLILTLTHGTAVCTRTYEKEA
pKi: −log10 of the molar value.

{"Entry smiles": "COC(=O)c1sc(-c2cccs2)cc1NC(=O)/C=C/C(=O)O", "pKi": 5.04}

All values here come from ChEMBL document CHEMBL1154280.
